Measured values drawn from PubChem BioAssay (NCATS) for this set.

Test target: Aldehyde dehydrogenase, mitochondrial (Homo sapiens)
Method description: qHTS for Inhibitors of the Aldehyde Dehydrogenase Family (ALDH2) Primary screen (AID 2061308); also: nearly all actives have a fitted effect of over 55% in size
Measurement setup: ALDH2 enzyme inhibition qHTS, 1536-well; series mostly up to 56 µM
Inconclusive results are not listed. The source made the active and inactive calls. Calls follow the shape of the dose curve; as a rule, active = well fitted inhibition curve with a large enough effect; inconclusive = small, poorly fitted or top-dose-only effect; inactive = flat fitted curve, though single readings scatter.
Readout label: outcome

These solved cases illustrate the format of a correct answer.
> print(dat)
                                   molecule                               test.target  readout.label    result
1  O=c1[nH]c2ccc(S(=O)(=O)N3CCN(S(=O)(=O)c4c(F)cccc4F)CC3)cc2[nH]c1=O  Aldehyde dehydrogenase, mitochondrial (Homo sapiens)        outcome  inactive
2       c1ccc(-n2cc(-c3nnc4n3CCCCC4)cn2)cc1  Aldehyde dehydrogenase, mitochondrial (Homo sapiens)        outcome  inactive
3             Oc1ccc(CNCc2ccccc2F)c2cccnc12  Aldehyde dehydrogenase, mitochondrial (Homo sapiens)        outcome  inactive
4  CN(C)[C@H]1CCN(c2cccc(Nc3nn4c(=O)c5ccccc5nc4s3)c2)C1  Aldehyde dehydrogenase, mitochondrial (Homo sapiens)        outcome  inactive
5  Cc1ccc(S(=O)(=O)Nc2cnccc2C(=O)Nc2ccc(C#N)cc2)cc1  Aldehyde dehydrogenase, mitochondrial (Homo sapiens)        outcome  inactive

# ---- query molecule ----
**Q:** Tell us which outcome value is on record for `Cc1scc2c1C(=O)NS2(=O)=O`
**A:** inactive
